- procedure text: Pharmacokinetics after intravenous administration in rats (LC-MS)
- measurement parameters: male, Sprague-Dawley, rat, in vivo, iv, 1 mg/kg, Plasma concentration, individual rats, IV 1 mg/kg; 2.0 hr
property label: concentration at 2 hr (ng/mL)
Give your result in ng/mL as a bare value.

Quick one: concentration at 2 hr of NC(=O)N(CCC(=O)O)NC(=O)[C@H](CO)NC(=O)[C@H](CO)NC(=O)N(N)Cc1ccccc1 ?
133

---

- procedure text: in vivo
- measurement parameters: male, Sprague-Dawley, rat, iv, 1 mg/kg, AUC∞, individual rats
property label: AUC(0-inf) (ng·h/mL)
Express the result in ng·h/mL but write the number alone.

Which AUC(0-inf) is reported for this compound? NC(=O)N(CCC(=O)O)NC(=O)[C@H](CO)NC(=O)[C@H](CO)NC(=O)N(N)Cc1ccccc1
3810

Data origin, for the record: patent US11471507B2
